Reported viability at 48 h, 10 µM by item:
# Test details: in vitro
# Set-up: species or system HB2, HEK293
# Assay context: human, ccd841 cells
Returns: string containing the number followed by the unit.

Below, each entry is followed by its recorded viability at 48 h, 10 µM result.
O=C(CCl)NCC#Cc1ccccc1 | 84.1%
Cc1c(C#N)c(NC(=O)CCl)n(C2CCCC2)c1C | 56.1%
O=C(CCl)N1CCN(Cc2ccc3c(c2)OCCO3)CC1 | 75.9%
Cc1cc(C)cc(NC(=O)CCl)c1 | 69.9%
CNC(=O)c1cccc(NC(=O)CCl)c1 | 55%

From here, focus on the item given below.
Given item C=CC(=O)N1CCC(NC(=O)c2cc(C)on2)CC1 , the value recorded as its viability at 48 h, 10 µM is 101%

----------
Readings of OTUB2 for the listed molecules
# Assay system: OTUB2 (OTUB2A) (Homo sapiens)
# Construct: full length residues 1-234, E. coli BL21(DE3)-R3, His tag removed by TEV, construct 27312 Da
# Set-up: Intact protein LC/MS covalent labelling, fragments in pools of five, 200 uM each, 4 °C
# Assay context: 24 h, 4 °C, pool of five; 200 µM; covalent
Lab note: write the figure by itself, no unit.

Here's what some known entries look like.
CN(C)C(=O)c1cccc(NC(=O)CCl)c1 | 0
CC(c1ccc(F)c(F)c1)N(C)C(=O)CCl (stereo not drawn) | 0.08
N#Cc1ccc(Cl)cc1NC(=O)CCl | 0.17
O=C(CCl)N1CCCC1=O | 0

Looking up CC12CCC(CC1=NNC(=O)CCl)C2(C)C (stereo not drawn) , I see its OTUB2 listed as 0

Lookup result for C=CC(=O)NC1CCN(C(=O)NCC)C1 (stereo not drawn) ; measured OTUB2: 0

Kindly note the recorded OTUB2 for Cc1ccc(NC(=O)NC(=O)CCl)c(C)c1 , which is 0.1

Just so you know, measured OTUB2 for C=CC(=O)N1CCCC(S(=O)(=O)N2CCOCC2)C1 (stereo not drawn) came out at 0

Quick note, OTUB2 for CNC(=O)NC(=O)CCl landed at 0

// recorded OTUB2 for Cl.O=C(CCl)N1CCN(CC(=O)N2CCOCC2)CC1 : 0.15

Noted for C=CC(=O)N1CCCN(C(=O)C2CCCO2)CC1 (stereo not drawn) : its OTUB2 reads 0

What the record says about O=C(CCl)Nc1nncs1 : OTUB2 is 0

For reference, reported OTUB2 for O=C(CCl)N(C1CCCC1)C1CCS(=O)(=O)C1 (stereo not drawn) stands at 0

molecule C=CC(=O)N1CCN(C(=O)C23CC4CC(CC(C4)C2)C3)CC1 , OTUB2 observed: 0

Sample C=CC(=O)Nc1ccc(Cl)c(C#N)c1 ; OTUB2 observed: 0

Lab note: measured OTUB2 of C=CC(=O)Nc1cccc(Cl)c1 was 0

Consider COc1ccc2c(c1)CCCN2C(=O)CCl . Its measured OTUB2 is 0

OTUB2 in this record for Cl.O=C(CCl)N1CCN(c2ncccn2)CC1 : 0

Record O=C(CCl)N1CCN(S(=O)(=O)c2ccc(Cl)s2)CC1 , field OTUB2: 0

Per the records, this molecule ( O=C(CCl)NC(=O)CN1CCCC1=O ) has OTUB2 equal to 0

Consider C=CC(=O)Nc1cccc(OC)c1 . Its measured OTUB2 is 0

Noted for C=CC(=O)N1CCN(C(=O)c2ccc(Br)o2)CC1 : its OTUB2 reads 0

Quick note, OTUB2 for Cc1ccccc1CN(C)C(=O)CCl landed at 0

----------
# Assay system: NUDT7 (Homo sapiens)
# Construct: residues 14-235, E. coli, pNIC28-Bsa4, N-terminal His6 tag removed by TEV, construct 26672 Da
# Set-up: Intact protein LC/MS covalent labelling, fragments in pools of five, 200 uM each, 4 °C
# Assay context: 24 h, 4 °C, pool of five; 200 µM; covalent
Reported endpoint: NUDT7
Write the number on its own, no unit after it.

Cc1cc(SC#N)cc(C)c1NC(=O)CCl | 0

In plain terms, C=CC(=O)NCC1=CS(=O)(=O)c2ccccc21 has a documented NUDT7 of 0

NUDT7 recorded for this compound, O=C(CCl)N1CCCc2cccc(F)c21 , is 0.4

For this compound ( C=CC(=O)N1CCN(c2ccnc(-c3ccccc3)n2)CC1 ), measured NUDT7 is 0

Quick note, NUDT7 for CN(C)c1ccc(NC(=O)CCl)cc1.Cl landed at 0

Noted for C=CC(=O)N1CCCn2c(cc3ccccc32)C1 : its NUDT7 reads 0

According to the records, this compound CN(C)C(=O)c1ccc(NC(=O)CCl)cc1 displays NUDT7 of 0

NUDT7 recorded for this compound, C=CC(=O)NC1CCC(N2CCCS2(=O)=O)CC1 (centres unmarked) , is 0

NUDT7 reading for Cc1ccc(CNC(=O)CCl)cc1F : 0

In plain terms, CCCNC(=O)NC(=O)CCl has a documented NUDT7 of 0

Field NUDT7 (entry Cc1cccc(N2CCN(C(=O)CCl)CC2)c1.Cl ) reads 0.05

----------
# Assay system: OTUB2 (OTUB2A) (Homo sapiens, UniProt Q96DC9)
# Construct: full length residues 1-234, E. coli BL21(DE3)-R3, His tag removed by TEV, construct 27312 Da
# Sequence (Q96DC9 1-234): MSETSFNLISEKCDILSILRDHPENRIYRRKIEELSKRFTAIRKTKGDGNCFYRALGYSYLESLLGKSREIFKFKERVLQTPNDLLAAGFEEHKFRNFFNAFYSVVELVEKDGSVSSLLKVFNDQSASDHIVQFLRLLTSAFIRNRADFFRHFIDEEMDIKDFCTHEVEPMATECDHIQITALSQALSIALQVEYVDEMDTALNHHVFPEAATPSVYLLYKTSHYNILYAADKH
# Design: Intact protein LC/MS covalent labelling, fragments in pools of five, 200 uM each, 4 °C
# Assay context: 24 h, 4 °C, pool of five; 200 µM; covalent
Reported endpoint: OTUB2
Please reply with the number alone, leaving off any unit.

Check out these entries, answers already filled in.
C=CC(=O)N1CCc2ncsc2C1 | 0
O=C(CCl)NCc1cccc(F)c1 | 0.43
Cc1ccc(C2=NN(C(=O)CCl)C(c3ccco3)C2)o1 (stereo not shown) | 0
CS(=O)(=O)N1CCN(C(=O)CCl)CC1 | 0
Cc1ccc(NC(=O)CCl)cc1C | 0.82

In the following, a different compound is considered.
Item: CC1CN(C(=O)CCl)CC(C)O1 (stereo not shown) | OTUB2: 0

----------
# Assay system: NUDT7 (Homo sapiens, UniProt P0C024)
# Construct: residues 14-235, E. coli, pNIC28-Bsa4, N-terminal His6 tag removed by TEV, construct 26672 Da
# Sequence (P0C024 14-235): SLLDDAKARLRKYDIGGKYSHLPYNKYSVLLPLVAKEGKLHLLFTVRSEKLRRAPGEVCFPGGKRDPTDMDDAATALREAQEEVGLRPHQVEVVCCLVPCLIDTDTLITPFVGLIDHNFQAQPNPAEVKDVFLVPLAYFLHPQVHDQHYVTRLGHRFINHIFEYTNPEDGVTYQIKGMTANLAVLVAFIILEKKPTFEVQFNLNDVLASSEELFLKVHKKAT
# Parameters: Intact protein LC/MS covalent labelling, fragments in pools of five, 200 uM each, 4 °C
# Assay context: 24 h, 4 °C, pool of five; 200 µM; covalent
Reported endpoint: NUDT7
Just the number, please, no unit attached.

Example compounds with recorded NUDT7:
C=CC(=O)N1CCCC1C(=O)Nc1nc2ccccc2s1 (stereo not drawn) [PCM-0102681] | 0
C=CC(=O)N1CCCC(CC(=O)OC(C)(C)C)CC1 (stereo not drawn) [PCM-0102609] | 0
O=C(CCl)Nc1nc2ccc(F)cc2s1 [PCM-0102294] | 0.89
O=C(CCl)N1CCCCC1 [PCM-0102514] | 0
O=C(CCl)N1CCCC(c2nc3ccccc3s2)C1 (stereo not drawn) [PCM-0102425] | 0.28

Summary line: C=CC(=O)NCc1cc2sccc2s1 [PCM-0102986] , NUDT7 (Homo sapiens, UniProt P0C024), reported NUDT7 = 0

----------
# Test details: in vitro
# Parameters: species or system HB2, HEK293
# Assay context: human, ccd841 cells
Reported endpoint: viability at 48 h, 10 µM (%)
Give a bare numeral; the unit % is implied.

The following compounds have reported results that may help.
C=CC(=O)NC1CCC2(CC1)OCCO2 | 132
COC(=O)c1c(NC(=O)CCl)sc(C)c1C | 80
CC1CCN(C(=O)CCl)C2CCCCC12 (stereo not shown) | 6.8
CN(Cc1cccc(F)c1)C(=O)CCl | 73.1
O=C(CCl)N1CCCC1c1ccsc1 (stereo not shown) | 37.7

The compound listed as CCc1cc(C(=O)NNC(=O)CCl)sc1C shows viability at 48 h, 10 µM equal to 74.3

Data point: Cc1ccc(CNC(=O)CCl)s1 ; viability at 48 h, 10 µM = 90.8

Per the records, this compound ( C=CC(=O)N(C)Cc1c(C)nc2sc(C)cn12 ) has viability at 48 h, 10 µM equal to 108

Note to self: viability at 48 h, 10 µM recorded for O=C(CCl)N1CCN(S(=O)(=O)c2ccc(F)c(Cl)c2)CC1 was 14.3

In plain terms, COc1cc(Cl)c(C)cc1NC(=O)CCl has a documented viability at 48 h, 10 µM of 64.1

Entry O=C(CCl)N1CCc2cc(S(=O)(=O)N3CCCCC3)ccc21 — recorded viability at 48 h, 10 µM = 28.8

Data point: CC1(c2ccccc2)NC(=O)N(NC(=O)CCl)C1=O (stereo not shown) ; viability at 48 h, 10 µM = 81.4

Recorded result, Cc1cccc(C(=O)O)c1NC(=O)CCl , viability at 48 h, 10 µM: 102

O=C(CCl)Nc1ccnn1C1CCCC1 yielded viability at 48 h, 10 µM of 60.4
